System: ASPC-1 tumor-bearing mice
Test: Biodistribution of radionuclide labeled complexes in ASPC-1 tumor-bearing mice
Assay type: in vivo, BALB/c nude mice
Details: Intestine, 24 h
METRIC: % ID/g (24 h) Intestine (% ID/g)
Numbers only here, please. The scale is % ID/g.

In the examples that follow, each entry is paired with its recorded % ID/g (24 h) Intestine.
COc1cccc(OC)c1-c1cc(C(=O)NC2(C(=O)O)C3CC4CC(C3)CC2C4)nn1-c1ccc(NC(=O)CCCN(C)CCCN(C)C(=O)CN2CCN(CC(=O)[O-])CCN(CC(=O)[O-])CCN(CC(=O)[O-])CC2)cc1C(C)C.[177Lu+3] (stereo not shown) [^177Lu-I-5] | 0.82
COc1cccc(OC)c1-c1cc(C(=O)NC2(C(=O)O)C3CC4CC(C3)CC2C4)nn1-c1ccc(NCCCN(C)CCCNC(=O)CN2CCN(CC(=O)[O-])CCN(CC(=O)[O-])CCN(CC(=O)[O-])CC2)cc1C(C)C.[177Lu+3] (stereo not shown) [^177Lu-I-2] | 1.00
COc1cccc(OC)c1-c1cc(C(=O)NC2(C(=O)O)C3CC4CC(C3)CC2C4)nn1-c1ccc(OCCCN(C)CCCN(C)C(=O)CN2CCN(CC(=O)[O-])CCN(CC(=O)[O-])CCN(CC(=O)[O-])CC2)cc1C(C)C.[177Lu+3] (stereo not shown) [^177Lu-I-7] | 0.62
COc1cccc(OC)c1-c1cc(C(=O)NC2(C(=O)O)C3CC4CC(C3)CC2C4)nn1-c1ccc(N(C)CCCN(C)CCCN(C)C(=O)CN2CCN(CC(=O)[O-])CCN(CC(=O)[O-])CCN(CC(=O)[O-])CC2)cc1C(C)C.[177Lu+3] (stereo not shown) [^177Lu-I-1] | 0.37
COc1cccc(OC)c1-c1cc(C(=O)NC2(C(=O)O)C3CC4CC(C3)CC2C4)nn1-c1ccc(SCCCN(C)CCCN(C)C(=O)CN2CCN(CC(=O)[O-])CCN(CC(=O)[O-])CCN(CC(=O)[O-])CC2)cc1C(C)C.[177Lu+3] (stereo not shown) [^177Lu-I-8] | 1.00

Give the reported % ID/g (24 h) Intestine for this compound. COc1cccc(OC)c1-c1cc(C(=O)NC2(C(=O)O)C3CC4CC(C3)CC2C4)nn1-c1ccc(NCCOCCOCCNC(=O)CN2CCN(CC(=O)[O-])CCN(CC(=O)[O-])CCN(CC(=O)[O-])CC2)cc1C(C)C.[177Lu+3] (stereo not shown) [^177Lu-I-10]
0.14

Please list % ID/g (24 h) Intestine recorded for the compound COc1cccc(OC)c1-c1cc(C(=O)NC2(C(=O)O)C3CC4CC(C3)CC2C4)nn1-c1ccc(C(=O)N(C)CCCN(C)CCCN(C)C(=O)CN2CCN(CC(=O)[O-])CCN(CC(=O)[O-])CCN(CC(=O)[O-])CC2)cc1C(C)C.[177Lu+3] (stereo not shown) [^177Lu-C-2, reference compound]
0.44

====

System: ASPC-1 tumor-bearing mice
Assay: Biodistribution of radionuclide labeled complexes in ASPC-1 tumor-bearing mice
Type: in vivo, BALB/c nude mice
Settings: Spleen, 4 h
Each entry below carries its recorded % ID/g (4 h) Spleen.

COc1cccc(OC)c1-c1cc(C(=O)NC2(C(=O)O)C3CC4CC(C3)CC2C4)nn1-c1ccc(NC(=O)CCCN(C)CCCN(C)C(=O)CN2CCN(CC(=O)[O-])CCN(CC(=O)[O-])CCN(CC(=O)[O-])CC2)cc1C(C)C.[177Lu+3] (stereo not shown) [^177Lu-I-5] | 2.39 ± 1.4 % ID/g
COc1cccc(OC)c1-c1cc(C(=O)NC2(C(=O)O)C3CC4CC(C3)CC2C4)nn1-c1ccc(N(CCCN(C)C)C(=O)COCCOCCNC(=O)CN2CCN(CC(=O)[O-])CCN(CC(=O)[O-])CCN(CC(=O)[O-])CC2)cc1C(C)C.[177Lu+3] (stereo not shown) [^177Lu-I-6] | 0.13 ± 0.03 % ID/g
COc1cccc(OC)c1-c1cc(C(=O)NC2(C(=O)O)C3CC4CC(C3)CC2C4)nn1-c1ccc(NCCOCCOCCNC(=O)CN2CCN(CC(=O)[O-])CCN(CC(=O)[O-])CCN(CC(=O)[O-])CC2)cc1C(C)C.[177Lu+3] (stereo not shown) [^177Lu-I-10] | 0.3 ± 0.14 % ID/g

Note down % ID/g (4 h) Spleen recorded for COc1cccc(OC)c1-c1cc(C(=O)NC2(C(=O)O)C3CC4CC(C3)CC2C4)nn1-c1ccc(N(C)CCCN(C)CCCN(C)C(=O)CN2CCN(CC(=O)[O-])CCN(CC(=O)[O-])CCN(CC(=O)[O-])CC2)cc1C(C)C.[177Lu+3] (stereo not shown) [^177Lu-I-1]
0.42 ± 0.16 % ID/g

====

Tested on: ASPC-1 tumor-bearing mice
Experiment: Biodistribution of radionuclide labeled complexes in ASPC-1 tumor-bearing mice
Format: in vivo, BALB/c nude mice
Conditions: Liver, 72 h
METRIC: % ID/g (72 h) Liver (% ID/g)
Give the number; % ID/g is assumed, so skip it.

COc1cccc(OC)c1-c1cc(C(=O)NC2(C(=O)O)C3CC4CC(C3)CC2C4)nn1-c1ccc(OCCCN(C)CCCN(C)C(=O)CN2CCN(CC(=O)[O-])CCN(CC(=O)[O-])CCN(CC(=O)[O-])CC2)cc1C(C)C.[177Lu+3] (centres unmarked) [^177Lu-I-7] | 0.23

// below: % ID/g (72 h) Liver requested for another compound
Name the recorded % ID/g (72 h) Liver of the compound listed here: COc1cccc(OC)c1-c1cc(C(=O)NC2(C(=O)O)C3CC4CC(C3)CC2C4)nn1-c1ccc(NCCCN(C)CCCNC(=O)CN2CCN(CC(=O)[O-])CCN(CC(=O)[O-])CCN(CC(=O)[O-])CC2)cc1C(C)C.[177Lu+3] (centres unmarked) [^177Lu-I-2]
1.02

====

Tested on: ASPC-1 tumor-bearing mice
Test: Biodistribution of radionuclide labeled complexes in ASPC-1 tumor-bearing mice
Assay type: in vivo, BALB/c nude mice
Conditions: Intestine, 72 h
METRIC: % ID/g (72 h) Intestine (% ID/g)
Report the value in % ID/g with no unit label.

These recorded examples may help you get a feel for the data.
COc1cccc(OC)c1-c1cc(C(=O)NC2(C(=O)O)C3CC4CC(C3)CC2C4)nn1-c1ccc(OCCCN(C)CCCN(C)C(=O)CN2CCN(CC(=O)[O-])CCN(CC(=O)[O-])CCN(CC(=O)[O-])CC2)cc1C(C)C.[177Lu+3] (stereo not drawn) [^177Lu-I-7] | 0.19
COc1cccc(OC)c1-c1cc(C(=O)NC2(C(=O)O)C3CC4CC(C3)CC2C4)nn1-c1ccc(NCCCN(C)CCCNC(=O)CN2CCN(CC(=O)[O-])CCN(CC(=O)[O-])CCN(CC(=O)[O-])CC2)cc1C(C)C.[177Lu+3] (stereo not drawn) [^177Lu-I-2] | 0.55
COc1cccc(OC)c1-c1cc(C(=O)NC2(C(=O)O)C3CC4CC(C3)CC2C4)nn1-c1ccc(C(=O)N(C)CCCN(C)CCCN(C)C(=O)CN2CCN(CC(=O)[O-])CCN(CC(=O)[O-])CCN(CC(=O)[O-])CC2)cc1C(C)C.[177Lu+3] (stereo not drawn) [^177Lu-C-2, reference compound] | 0.15

Provide % ID/g (72 h) Intestine value for the following compound: COc1cccc(OC)c1-c1cc(C(=O)NC2(C(=O)O)C3CC4CC(C3)CC2C4)nn1-c1ccc(NC(=O)CCCN(C)CCCN(C)C(=O)CN2CCN(CC(=O)[O-])CCN(CC(=O)[O-])CCN(CC(=O)[O-])CC2)cc1C(C)C.[177Lu+3] (stereo not drawn) [^177Lu-I-5]
0.51

Given COc1cccc(OC)c1-c1cc(C(=O)NC2(C(=O)O)C3CC4CC(C3)CC2C4)nn1-c1ccc(NCCOCCOCCNC(=O)CN2CCN(CC(=O)[O-])CCN(CC(=O)[O-])CCN(CC(=O)[O-])CC2)cc1C(C)C.[177Lu+3] (stereo not drawn) [^177Lu-I-10] , respond with its % ID/g (72 h) Intestine.
0.04

Find the measured % ID/g (72 h) Intestine of COc1cccc(OC)c1-c1cc(C(=O)NC2(C(=O)O)C3CC4CC(C3)CC2C4)nn1-c1ccc(N(C)CCCN(C)CCCN(C)C(=O)CN2CCN(CC(=O)[O-])CCN(CC(=O)[O-])CCN(CC(=O)[O-])CC2)cc1C(C)C.[177Lu+3] (stereo not drawn) [^177Lu-I-1] and report it.
0.51

====

Each item that follows carries a reported % ID/g (4 h) Spleen.
Tested on: ASPC-1 tumor-bearing mice
Assay: Biodistribution of radionuclide labeled complexes in ASPC-1 tumor-bearing mice
Type: in vivo, BALB/c nude mice
Conditions: Spleen, 4 h
Kindly write the number and append the unit.

Worked examples, 3 compounds total:
COc1cccc(OC)c1-c1cc(C(=O)NC2(C(=O)O)C3CC4CC(C3)CC2C4)nn1-c1ccc(OCCCN(C)CCCN(C)C(=O)CN2CCN(CC(=O)[O-])CCN(CC(=O)[O-])CCN(CC(=O)[O-])CC2)cc1C(C)C.[177Lu+3] (stereo not shown) [^177Lu-I-7] | 0.58 ± 0.15 % ID/g
COc1cccc(OC)c1-c1cc(C(=O)NC2(C(=O)O)C3CC4CC(C3)CC2C4)nn1-c1ccc(C(=O)N(C)CCCN(C)CCCN(C)C(=O)CN2CCN(CC(=O)[O-])CCN(CC(=O)[O-])CCN(CC(=O)[O-])CC2)cc1C(C)C.[177Lu+3] (stereo not shown) [^177Lu-C-2, reference compound] | 0.49 ± 0.04 % ID/g
COc1cccc(OC)c1-c1cc(C(=O)NC2(C(=O)O)C3CC4CC(C3)CC2C4)nn1-c1ccc(SCCCN(C)CCCN(C)C(=O)CN2CCN(CC(=O)[O-])CCN(CC(=O)[O-])CCN(CC(=O)[O-])CC2)cc1C(C)C.[177Lu+3] (stereo not shown) [^177Lu-I-8] | 0.71 ± 0.16 % ID/g

We next turn to a different compound, shown below.
For the compound COc1cccc(OC)c1-c1cc(C(=O)NC2(C(=O)O)C3CC4CC(C3)CC2C4)nn1-c1ccc(C(=O)N(CCCNC(=O)CN2CCN(CC(=O)[O-])CCN(CC(=O)[O-])CCN(CC(=O)[O-])CC2)CCCN(C)C)cc1C(C)C.[177Lu+3] (stereo not shown) [^177Lu-C-5, reference compound] , report % ID/g (4 h) Spleen.
0.08 ± 0.03 % ID/g
